The reported numbers originate from patent US8389557B2.

- Tested on: Axl (Homo sapiens, UniProt P30530)
- Construct: endogenous in cells; host or cells: HeLa cells
- Sequence (P30530 26-894): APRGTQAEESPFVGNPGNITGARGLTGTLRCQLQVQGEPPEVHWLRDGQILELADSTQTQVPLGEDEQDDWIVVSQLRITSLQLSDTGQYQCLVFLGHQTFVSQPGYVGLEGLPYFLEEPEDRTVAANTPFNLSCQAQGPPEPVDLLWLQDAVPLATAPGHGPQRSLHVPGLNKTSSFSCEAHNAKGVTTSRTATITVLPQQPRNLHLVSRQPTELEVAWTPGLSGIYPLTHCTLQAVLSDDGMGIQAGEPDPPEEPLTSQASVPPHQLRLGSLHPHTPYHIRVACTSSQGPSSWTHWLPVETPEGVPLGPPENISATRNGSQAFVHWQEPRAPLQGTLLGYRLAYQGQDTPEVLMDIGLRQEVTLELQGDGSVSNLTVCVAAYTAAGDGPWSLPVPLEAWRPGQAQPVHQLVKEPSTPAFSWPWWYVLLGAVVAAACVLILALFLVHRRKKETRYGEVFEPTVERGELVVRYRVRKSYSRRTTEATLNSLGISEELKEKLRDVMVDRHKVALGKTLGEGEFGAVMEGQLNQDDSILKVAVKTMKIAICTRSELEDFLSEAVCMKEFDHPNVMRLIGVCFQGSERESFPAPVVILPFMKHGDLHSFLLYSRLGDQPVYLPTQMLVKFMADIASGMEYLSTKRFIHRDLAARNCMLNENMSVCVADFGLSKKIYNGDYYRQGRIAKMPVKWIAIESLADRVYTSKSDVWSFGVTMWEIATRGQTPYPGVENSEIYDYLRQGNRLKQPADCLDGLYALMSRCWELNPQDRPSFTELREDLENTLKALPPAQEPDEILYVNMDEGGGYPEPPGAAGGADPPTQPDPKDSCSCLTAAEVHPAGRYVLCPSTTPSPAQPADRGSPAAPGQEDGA
- Protocol description: Phospho-Akt in-cell Western assay (inhibition of Axl activity)
- Type: cell-based
- Test context: Table 5; Hela cells, Axl antibody cross-linking stimulation, phospho-Akt chemiluminescence
Assay endpoint: IC50

[in] Report measured IC50; entry is CC(C)(C)OC(=O)NC1CCOc2ccc(Nc3nc(N)n(C(=O)c4ccc(C(C)(C)C)cc4)n3)cc21 (centres unmarked)
[out] > 20 µM

====

Reported pIC50 is given for each of the following compounds.
- Tested on: Axl (Homo sapiens, UniProt P30530)
- Construct: endogenous in cells; host or cells: HeLa cells
- Protocol description: Phospho-Akt in-cell Western assay (inhibition of Axl activity)
- Assay type: cell-based
- Test context: inhibition of Axl activity, Table 1
pIC50: −log10 of the molar value.

[in] Report measured pIC50; entry is CC(C)Oc1ccc(C(=O)n2nc(Nc3ccc(OCC#N)cc3)nc2N)cc1
[out] 5.00 to 6.00

New cases:
[in] Report measured pIC50; entry is Cc1cccc(C(=O)n2nc(Nc3cccc(OCS(C)(=O)=O)c3)nc2N)c1
[out] 5.00 to 6.00

[in] Report measured pIC50; entry is CN(C)c1ccc(C(=O)n2nc(Nc3ccc4c(c3)OCCO4)nc2N)cc1
[out] 5.00 to 6.00

[in] Report measured pIC50; entry is CC(C)Oc1cccc(C(=O)n2nc(Nc3ccc(OCCN4CCOCC4)cc3)nc2N)c1
[out] > 6.00

[in] Report measured pIC50; entry is COC(=O)COc1cccc(C(=O)n2nc(Nc3ccc4c(c3)OCCO4)nc2N)c1
[out] 5.00 to 6.00

[in] Report measured pIC50; entry is Cc1ccc(C(=O)n2nc(Nc3ccccc3C)nc2N)cc1
[out] < 4.70

[in] Report measured pIC50; entry is CC(C)Oc1ccc(C(=O)n2nc(Nc3cccc(OCC#N)c3)nc2N)cc1
[out] 5.00 to 6.00

[in] Report measured pIC50; entry is COc1ccc(C(=O)n2nc(Nc3ccc4c(c3)OCCO4)nc2N)cc1C
[out] 5.00 to 6.00

[in] Report measured pIC50; entry is Nc1nc(Nc2ccc(OCCN3CCCCC3)cc2)nn1C(=O)c1ccc(C2CCCCC2)cc1
[out] 5.00 to 6.00

====

- Tested on: Axl (Homo sapiens)
- Construct: endogenous in cells; host or cells: HeLa cells
- Protocol description: Phospho-Akt in-cell Western assay (inhibition of Axl activity)
- Type: cell-based
- Test context: Table 7; Hela cells, Axl antibody cross-linking stimulation, phospho-Akt chemiluminescence
Reported IC50 is given for each of the following molecules.

Look over these answered cases.
[in] Please indicate recorded IC50 of Nc1nc(Nc2ccc(OCCN3CCCCC3)cc2)nn1C(=O)NC1CCCCC1 measured with Axl (Homo sapiens).
[out] 1 to 10 µM

[in] Please indicate recorded IC50 of CC(=O)N(C)c1ccc(Nc2nc(N)n(C(=O)Nc3ccc4c(c3)OCO4)n2)cc1 measured with Axl (Homo sapiens).
[out] 1 to 10 µM

[in] Please indicate recorded IC50 of Nc1nc(Nc2ccc(OCCN3CCCC3)cc2)nn1C(=S)Nc1c(F)cccc1F measured with Axl (Homo sapiens).
[out] < 1 µM

[in] Please indicate recorded IC50 of Cc1ccc(NC(=O)n2nc(Nc3ccc(OCCN4CCCC4)cc3)nc2N)cc1 measured with Axl (Homo sapiens).
[out] 1 to 10 µM

[in] Please indicate recorded IC50 of COc1cc(NC(=O)n2nc(Nc3ccc(OCCN4CCCC4)cc3)nc2N)cc(OC)c1 measured with Axl (Homo sapiens).
[out] < 1 µM

New cases:
[in] Please indicate recorded IC50 of Cc1cc(C)cc(NC(=O)n2nc(Nc3ccc(OCCN4CCCCC4)cc3)nc2N)c1 measured with Axl (Homo sapiens).
[out] > 20 µM

[in] Please indicate recorded IC50 of Nc1nc(Nc2ccc(OCCN3CCCC3)cc2)nn1C(=S)Nc1c(F)cc(F)cc1F measured with Axl (Homo sapiens).
[out] 1 to 10 µM

[in] Please indicate recorded IC50 of CC(C)c1ccc(NC(=O)n2nc(Nc3ccc(OCCN4CCCCC4)cc3)nc2N)cc1 measured with Axl (Homo sapiens).
[out] 1 to 10 µM

[in] Please indicate recorded IC50 of CC(=O)N(C)c1ccc(Nc2nc(N)n(C(=O)NC3CCCCC3)n2)cc1 measured with Axl (Homo sapiens).
[out] > 20 µM

[in] Please indicate recorded IC50 of N#Cc1ccc(NC(=O)n2nc(Nc3ccc(OCCN4CCCCC4)cc3)nc2N)cc1 measured with Axl (Homo sapiens).
[out] > 20 µM

====

- Tested on: Axl (Homo sapiens, UniProt P30530)
- Construct: endogenous in cells; host or cells: HeLa cells
- Protocol description: Phospho-Akt in-cell Western assay (inhibition of Axl activity)
- Type: cell-based
- Test context: inhibition of Axl activity, Table 1
pIC50: −log10 of the molar value.
Assay endpoint: pIC50

Look over these answered cases.
[in] Please indicate recorded pIC50 of Cc1cccc(C(=O)n2nc(Nc3cccc(OCC(=O)NCC4COC(C)(C)O4)c3)nc2N)c1 (stereo not shown) measured with Axl (Homo sapiens, UniProt P30530).
[out] 5.00 to 6.00

[in] Please indicate recorded pIC50 of Nc1nc(Nc2ccc3c(c2)OCCO3)nn1C(=O)c1ccc(Cl)cc1 measured with Axl (Homo sapiens, UniProt P30530).
[out] 5.00 to 6.00

[in] Please indicate recorded pIC50 of CC(C)Oc1cccc(C(=O)n2nc(Nc3cccc(O)c3)nc2N)c1 measured with Axl (Homo sapiens, UniProt P30530).
[out] 5.00 to 6.00

New cases:
[in] Please indicate recorded pIC50 of CC(C)Oc1ccc(C(=O)n2nc(Nc3cccc(OCCC4OCCO4)c3)nc2N)cc1 measured with Axl (Homo sapiens, UniProt P30530).
[out] 5.00 to 6.00

[in] Please indicate recorded pIC50 of CC(C)Oc1cccc(C(=O)n2nc(Nc3cccc(OCc4ccccc4)c3)nc2N)c1 measured with Axl (Homo sapiens, UniProt P30530).
[out] < 4.70

[in] Please indicate recorded pIC50 of Cc1ccc(C(=O)n2nc(Nc3cccc(C)c3)nc2N)cc1 measured with Axl (Homo sapiens, UniProt P30530).
[out] 5.00 to 6.00

[in] Please indicate recorded pIC50 of CC(C)c1ccc(C(=O)n2nc(Nc3ccc(OCCN4CCCCC4)cc3)nc2N)cc1 measured with Axl (Homo sapiens, UniProt P30530).
[out] > 6.00

[in] Please indicate recorded pIC50 of CC(C)Oc1ccc(Nc2nc(N)n(C(=O)c3cccc(O)c3)n2)cc1 measured with Axl (Homo sapiens, UniProt P30530).
[out] 5.00 to 6.00

[in] Please indicate recorded pIC50 of Nc1nc(Nc2ccc3c(c2)OCCO3)nn1C(=O)c1cccc(OC2CCCC2)c1 measured with Axl (Homo sapiens, UniProt P30530).
[out] 5.00 to 6.00

[in] Please indicate recorded pIC50 of COC(=O)COc1cccc(Nc2nc(N)n(C(=O)c3cccc(C)c3)n2)c1 measured with Axl (Homo sapiens, UniProt P30530).
[out] 5.00 to 6.00

[in] Please indicate recorded pIC50 of CCOc1cccc(C(=O)n2nc(Nc3ccc4c(c3)OCCO4)nc2N)c1 measured with Axl (Homo sapiens, UniProt P30530).
[out] < 4.70

[in] Please indicate recorded pIC50 of Cc1cccc(C(=O)n2nc(Nc3cccc(OCC(=O)NCCO)c3)nc2N)c1 measured with Axl (Homo sapiens, UniProt P30530).
[out] 5.00 to 6.00

[in] Please indicate recorded pIC50 of Cc1cccc(C(=O)n2nc(Nc3cccc(OCC(=O)NCCOC4CCCCO4)c3)nc2N)c1 (stereo not shown) measured with Axl (Homo sapiens, UniProt P30530).
[out] 5.00 to 6.00

[in] Please indicate recorded pIC50 of Cc1ccc(C(=O)n2nc(Nc3ccc(N4CCOCC4)cc3)nc2N)cc1 measured with Axl (Homo sapiens, UniProt P30530).
[out] > 6.00

[in] Please indicate recorded pIC50 of CC(C)c1ccc(C(=O)n2nc(Nc3ccc4c(c3)OCCO4)nc2N)cc1 measured with Axl (Homo sapiens, UniProt P30530).
[out] 5.00 to 6.00
